Tested on: SN12C renal
Assay: NCI tumour cell line growth inhibition, 48 h
Where a SMILES comes first, the peptide text is derived from it. The star is where a group is joined. Boc = CC(C)(C)OC(=O)*; OBn = c1ccc(CO*)cc1
# TGI per record follows
quantityKind: TGI

INSERT INTO results (molecule, targetdesc, measuredresult) VALUES
  ('CC1=C2c3ccccc3N(S(=O)(=O)c3ccccc3)[C@H]2[C@H](C(=O)N2C3CC4CC[C@@]3(CS2(=O)=O)C4(C)C)CC1 (some centres undefined)', 'SN12C renal', '> 100 µM'),
  ('Cc1nc2sc(C(=O)Nc3cccc(Cl)c3C)c(N)c2cc1C(=O)c1ccccc1', 'SN12C renal', '> 50 µM'),
  ('C[C@]12CC/C(=N\OC(=O)Nc3ccccc3)C=C1CC[C@@H]1C2CC[C@@]2(C)C1CC[C@@H]2OC(=O)Nc1ccccc1 (some centres undefined)', 'SN12C renal', '30.8 µM'),
  ('CC(C)C(NC(=O)CNC(=O)C1CCCN1C(=O)C(NC(=O)OC(C)(C)C)C(C)C)C(=O)NCC(=O)OCc1ccccc1 (centres undefined) (Boc-VPGVG-OBn; configuration not given here)', 'SN12C renal', '> 100 µM'),
  ('CN/N=C(/CC(=O)c1sc(-n2nc(-c3ccccc3)cc2-c2ccccc2)nc1C)C(=O)Nc1ccc(Cl)c(Cl)c1', 'SN12C renal', '> 100 µM'),
  ('Cc1ccc(-c2n[nH]c(=O)n2N2C(=O)C=CC2=O)cc1', 'SN12C renal', '> 100 µM'),
  ('COc1cccc2cc(-c3nc(C4CCC(C(=O)O)CC4)n4ncnc(N)c34)[nH]c12 (centres undefined)', 'SN12C renal', '> 100 µM'),
  ('O=c1nc(-c2ccccc2)scc1-c1ccccc1', 'SN12C renal', '> 100 µM'),
  ('CC(=O)OC1CC(C)c2c(Cl)ncnc21 (centres undefined)', 'SN12C renal', '> 100 µM');

----------
# TGI per record follows
Test system: T-47D breast
Assay: NCI tumour cell line growth inhibition, 48 h
Where a SMILES comes first, the peptide text is derived from it. The star is where a group is joined. Boc = CC(C)(C)OC(=O)*; OBn = c1ccc(CO*)cc1
quantityKind: TGI

INSERT INTO results (compound, targetdesc, quantitykind, measuredresult) VALUES
  ('C=CCOCn1ccc(NC(=O)c2ccccc2)nc1=O', 'T-47D breast', 'TGI', '> 100 µM'),
  ('CC(C(=O)N1C(=O)N(C(=O)[C@H](C)C(O)c2ccccc2)[C@H](c2ccccc2)[C@H]1c1ccccc1)[C@@H](O)c1ccccc1 (stereo partly specified)', 'T-47D breast', 'TGI', '> 100 µM'),
  ('CC(=O)O[C@H]1CC[C@@]2(C)C(=CC[C@H]3[C@@H]4C/C(=C\c5ccncc5)[C@H](OC(C)=O)[C@@]4(C)CC[C@@H]32)C1', 'T-47D breast', 'TGI', '38.5 µM'),
  ('CC(C)C(NC(=O)CNC(=O)C1CCCN1C(=O)C(NC(=O)OC(C)(C)C)C(C)C)C(=O)NCC(=O)OCc1ccccc1 (stereo unspecified) (Boc-VPGVG-OBn; configuration not given here)', 'T-47D breast', 'TGI', '> 100 µM'),
  ('COC1CC(n2ccc(=O)[nH]c2=O)OC1CO (stereo unspecified)', 'T-47D breast', 'TGI', '> 100 µM'),
  ('CCCN(CCC)c1ccc(/C=N/NC(=O)c2cccnc2)cc1', 'T-47D breast', 'TGI', '> 100 µM'),
  ('CSc1n[nH]c2n[nH]c(C)c12', 'T-47D breast', 'TGI', '> 100 µM'),
  ('CCCCCCCCCCCCCCCCNc1ccc2c(c1)OCCOCCOCCOCCO2', 'T-47D breast', 'TGI', '9.2 µM'),
  ('CCN(CC)CCNc1ccc2ncn3c4c(OC)ccc(=O)c4c(O)c1c23', 'T-47D breast', 'TGI', '> 100 µM'),
  ('CC1C(=O)CC[C@@]2(C)C(=O)CCCC12O (stereo partly specified)', 'T-47D breast', 'TGI', '> 100 µM'),
  ('C=CCCC(O)c1ccc(CCCCCCCCCCC)o1 (stereo unspecified)', 'T-47D breast', 'TGI', '30.5 µM'),
  ('COc1ccc(NC(=O)CC(=O)n2nc(-c3ccccc3)c(N=Nc3ccccc3C)c2-c2ccccc2)cc1', 'T-47D breast', 'TGI', '57.7 µM'),
  ('O=[N+]([O-])c1ccc(NN=C2c3ccccc3Cc3ccccc32)c([N+](=O)[O-])c1', 'T-47D breast', 'TGI', '> 100 µM'),
  ('COC(=O)c1cc(NC(=O)CN(CCN(CC(=O)O)CC(=O)Nc2ccc(O)c(C(=O)OC)c2)CC(=O)O)ccc1O', 'T-47D breast', 'TGI', '> 100 µM'),
  ('CC#CC(=O)N[C@H]1CCCN(c2c(F)cc(C(N)=O)c3[nH]c(C)c(C)c23)C1', 'T-47D breast', 'TGI', '44.3 µM'),
  ('[O]=[W](=[O])([OH])[OH]', 'T-47D breast', 'TGI', '> 100 µM'),
  ('O=C1NCC2(CCNCC2)N1', 'T-47D breast', 'TGI', '> 100 µM'),
  ('COc1cc(/C=C2/C(=O)N=C(NC(C)=O)N2C)ccc1OC(C)=O', 'T-47D breast', 'TGI', '> 100 µM'),
  ('CCN(CC)c1nc(=O)c(C(=O)C(C)(C)C)c(C(C)(C)C)o1', 'T-47D breast', 'TGI', '> 100 µM'),
  ('C[N+]1(CCCC[N+]2(C)CCCCCCC2)CCCCCCC1', 'T-47D breast', 'TGI', '> 100 µM'),
  ('CC(=O)[C@]1(C)[C@H](C)O[C@](C)(CO)[C@H]1O[Si](C)(C)c1ccccc1', 'T-47D breast', 'TGI', '97.9 µM');
